experiment: S. pombe growth modifiers, basal conditions – strain 972, OD600, 24 h, no modulator, primary screen (AID 1090);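 further: basal condition with compound alone and no growth modifier present; test concentration not given here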; details: S. pombe 972 growth, higher = more signal, called active from +8 up or from −8 down
property: z-score

>>> numeric_readout("C=CCC(OC(C)=O)[C@@H]1[C@@H](N(Cc2ccc(-c3ccccc3)cc2)C(=O)Cc2ccc(F)cc2)c2cc(OCCCO)ccc2N1C(=O)c1ccc2ccccc2c1 (stereo not given in full)")
0.135
>>> numeric_readout("CN(C)CCCCCCNC(=O)[C@@H]1C[C@@H]2C(=O)N[C@@H](CCCC[N+](C)(C)C)C(=O)N2[C@@H]1c1ccc(O)cc1")
-0.689
>>> numeric_readout("COC(=O)[C@@]1(Cc2ccc(F)cc2)[C@H]2c3cc(C(=O)N(C)C)n(Cc4ccc(C)o4)c3C[C@H]2CN1C(=O)c1ccccc1")
-7.9
>>> numeric_readout("Cc1c(NC(=O)/C(C#N)=C/c2cccc([N+](=O)[O-])c2)c(=O)n(-c2ccccc2)n1C")
-2.55
>>> numeric_readout("C=CCC(OC(C)=O)[C@@H]1[C@@H](N(Cc2cc3ccccc3o2)C(=O)Cc2ccc(OC)cc2)c2cc(OCCCO)ccc2N1C(=O)c1ccc2ccccc2c1 (stereo not given in full)")
0.568
>>> numeric_readout("C#CCN1[C@H](/C=C/C2CC2)[C@H](Cc2ccccc2)OC(=O)[C@@H]1Cc1ccccc1")
0.241
>>> numeric_readout("N#Cc1ccc(C(O)C2C=CC3C(=O)N(c4ccccc4)C(=O)C3N2Nc2ccccc2F)cc1 (stereo not given)")
0.135
>>> numeric_readout("CCOC(=O)[C@H]1C/C=C/C[C@H](C(=O)OCC)C(=O)O[C@H]2[C@@H](OC)O[C@H](CO)[C@@H](OC(=O)c3ccc(Br)cc3)[C@@H]2OC1=O")
-0.316
>>> numeric_readout("CCCC=C(CCC)[C@@H](NS(=O)(=O)c1ccc(Cl)cc1)c1ccc(C(=O)OC)cc1")
0.745
>>> numeric_readout("CCCC=C(CCC)[C@@H](NC(=O)OCC(C)C)c1ccccc1")
-0.623
>>> numeric_readout("CCCCCN1CC=CC23O[C@@H]4C=CCOC(=O)[C@@H]4[C@H]2C(=O)N(C(C)CO)[C@@H]3C1=O (stereo not given in full)")
-0.226
>>> numeric_readout("C=C(CCCC)C(=O)CC[C@@H](OC(C)=O)c1ccc(CO)o1")
-15.4
>>> numeric_readout("COc1ccc([Si](C)(C)[C@@H]2[C@@H](CCO)O[C@]3(C(=O)N(Cc4cccc(N5CCOC5=O)c4)c4ccccc43)[C@H]2C)cc1")
0.643
>>> numeric_readout("COCCOC(=O)N1C(=O)[C@@]2(c3cc(C#CCCO)ccc31)[C@H](c1ccc(OCCO)cc1)N1[C@H](c3ccccc3)[C@H](c3ccccc3)OC(=O)[C@H]1[C@@H]2C(N)=O")
0.245
>>> numeric_readout("O=C(CS)NCCCCCNC(=O)[C@@H]1C[C@@H]2C(=O)NCC(=O)N2[C@@H]1c1ccc(O)cc1")
-0.771

###

assay: JC-1 mitochondrial signal, unstimulated MM1S myeloma – cell-based, JC-1 fluorescence, 24 h, 100 nL compound, profiling panel (AID 1170); conditions: MM1S mitochondrial potential, higher = more signal; further: test concentration not given here
Classification field: 1 = z-score at or over -0.8; 0 = z-score under -0.8.

>>> qualitative_label("OB1C=CCC(CCc2ccccc2)O1 (stereo unspecified)")
1
>>> qualitative_label("CC[C@@H]1C=C(C(=O)O)[C@H](c2cccc3ccccc23)N1S(=O)(=O)c1ccc(C)cc1")
0
>>> qualitative_label("COc1ccc([Si](C)(C)[C@@H]2[C@@H](CCO)O[C@]3(C(=O)N(Cc4cccc(N5CCOC5=O)c4)c4ccccc43)[C@H]2C)cc1")
0
>>> qualitative_label("NC(=O)NCC#Cc1ccc2c(c1)[C@]1(C(=O)N2)[C@H](C(=O)O)[C@H]2C(=O)O[C@H](c3ccccc3)[C@H](c3ccccc3)N2[C@@H]1c1ccc(O)cc1")
1
>>> qualitative_label("CN1CCC(CCCO)=CC1c1cccs1 (stereo unspecified)")
1
>>> qualitative_label("COc1ccc([C@H]2C[C@H]3C(Br)=C[C@@]2(CO)C(=O)[C@]32CO2)cc1")
0
>>> qualitative_label("COC(=O)c1c2oc(c1C(=O)OC)C(=O)N[C@@H](C(C)C)Cn1cc(nn1)C1(CCCCC1)NC(=O)N[C@H](CO)CC2")
1
>>> qualitative_label("C#CCN1[C@H](/C=C/C2CC2)[C@H](Cc2ccccc2)OC(=O)[C@@H]1Cc1ccccc1")
1
>>> qualitative_label("NC(=O)N1C(=O)C2C(C1=O)C1C=C(CCCO)C2C(C2CC2)N1Cc1cc2c(cc1Br)OCO2 (stereo unspecified)")
1
>>> qualitative_label("O=C(O)[C@H]1C[C@H]2C(=O)N3CCC[C@H]3C(=O)N2[C@H]1c1ccc(O)cc1")
1
>>> qualitative_label("CCOC(=O)C[C@H]1[C@H](OC(=O)c2cc3ccccc3oc2=O)[C@@H](NC(=O)CC(C)C)c2cc(OCCCO)ccc2N1C(=O)c1ccccc1")
1
>>> qualitative_label("CCCCC(O)C1C=CC2C(=O)N(C)C(=O)C2N1N1CCCCC1 (stereo unspecified)")
1
>>> qualitative_label("COC(=O)[C@H](Cc1ccccc1)N[C@H](/C=C/C1CC1)[C@@H](O)Cc1ccccc1")
0
>>> qualitative_label("CCCCCN1CC=CC23O[C@@H]4C=CCOC(=O)[C@@H]4[C@H]2C(=O)N(C(C)CO)[C@@H]3C1=O (stereo partly specified)")
1
>>> qualitative_label("C[N+](C)(C)CCCC[C@@H]1NC(=O)[C@@H]2C[C@H](C(=O)NCCCCCN)[C@H](c3ccc(O)cc3)N2C1=O")
1
>>> qualitative_label("CCOC(=O)C1=CC[C@H]2C(=O)N(c3ccccc3)C(=O)[C@@H]12")
1
>>> qualitative_label("COc1ccccc1CN1C(=O)c2ccccc2[C@@H](C(=O)NCc2ccccc2)[C@@H]1c1ccc(CO)cc1")
1
>>> qualitative_label("C=CCC(OC(C)=O)[C@@H]1[C@@H](N(Cc2ccc(-c3cccc(C(F)(F)F)c3)o2)C(=O)c2cccc3ccccc23)c2cc(OCCCO)ccc2N1C(=O)Cc1ccc2ccccc2c1 (stereo partly specified)")
1
>>> qualitative_label("NC(=O)[C@@H]1[C@H]2C(=O)O[C@H](c3ccccc3)[C@H](c3ccccc3)N2[C@H](c2ccc(O)cc2)[C@@]12C(=O)Nc1ccc(C#CC3=CCCCC3)cc12")
0
>>> qualitative_label("CCCCN1CC=CC23O[C@@H]4/C=C\\CCCOC(=O)C4[C@H]2C(=O)N(CCCCCO)[C@@H]3C1=O (stereo partly specified)")
1
>>> qualitative_label("O=C1O[C@@H](c2ccccc2)[C@@H](c2ccccc2)N2[C@@H](c3ccccc3OCCO)[C@]3(C(=O)Nc4ccccc43)[C@@H](C(=O)O)[C@H]12")
1
>>> qualitative_label("C=C[C@H](C)[C@@H](OC(=O)Nc1ccc(SC)cc1)c1ccc(O)c2ccccc12")
0
>>> qualitative_label("C=CCC(OC(C)=O)[C@@H]1[C@@H](N(Cc2cc3ccccc3o2)C(=O)Cc2ccc(OC)cc2)c2cc(OCCCO)ccc2N1C(=O)c1ccc2ccccc2c1 (stereo partly specified)")
1
>>> qualitative_label("COc1ccc([Si](C)(C)[C@@H]2[C@@H](CCn3cc([C@H](O)c4ccccc4)nn3)O[C@]3(C(=O)N(Cc4cccc(N5CCC5=O)c4)c4ccccc43)[C@H]2C)cc1")
1
>>> qualitative_label("COCCOC(=O)N1C(=O)[C@@]2(c3ccccc31)[C@H](C(=O)N1CCCCCCC1)[C@H]1C(=O)O[C@H](c3ccccc3)[C@H](c3ccccc3)N1[C@@H]2c1ccc(OCCO)cc1")
0
>>> qualitative_label("C=C(CCCC)/C(=C/C[C@H](OC(C)=O)c1ccc(OCCO)cc1)c1cnc2ccccc2c1")
1
>>> qualitative_label("[N-]=[N+]=NCc1ccccc1[C@@H]1OC(c2ccc(OCCCO)cc2)=N[C@]1(CCS(=O)(=O)c1ccccc1)C(N)=O")
0
>>> qualitative_label("O=C1N(CCS(=O)(=O)c2ccccc2)c2ccccc2[C@@H]2OC(c3ccc(OCCCO)cc3)=N[C@]12Cc1ccccc1")
0
>>> qualitative_label("CCCC[C@@H]1C[C@H]1[C@@H](NC(=O)c1cccnc1)c1ccc(Cl)cc1")
0
>>> qualitative_label("COCC(=C=CC[C@H](O)c1cccc(OCCO)c1)C[C@H](O)c1cc(Cl)cc(Cl)c1O")
0

###

Below, each of the molecules is paired with its reported composite z-score value.
target: Dickkopf-related protein 1 (Homo sapiens) (UniProt O94907); assay: small molecules binding DKK1 protein – biochemical, small-molecule microarray, 635 nm fluorescence scan, primary screen (AID 1106); conditions: higher = more signal;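 further: score merges emission near 667 nm with signal to noise over three replicate slides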
Sequence (O94907 whole entry, looked up): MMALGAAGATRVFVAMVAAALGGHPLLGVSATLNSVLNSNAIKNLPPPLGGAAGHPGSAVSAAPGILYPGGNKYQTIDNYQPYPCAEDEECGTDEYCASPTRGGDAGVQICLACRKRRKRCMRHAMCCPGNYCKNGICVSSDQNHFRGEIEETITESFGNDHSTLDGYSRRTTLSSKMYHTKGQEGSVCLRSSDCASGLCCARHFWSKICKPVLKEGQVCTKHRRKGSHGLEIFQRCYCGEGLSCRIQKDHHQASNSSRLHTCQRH
property: composite z-score

>>> numeric_readout("O=C(CS)NCCCCCNC(=O)[C@H]1C[C@H]2C(=O)NCC(=O)N2[C@H]1c1cccc(OCCO)c1")
0.129
>>> numeric_readout("NC(=O)[C@@H]1[C@H]2C(=O)O[C@H](c3ccccc3)[C@H](c3ccccc3)N2[C@H](c2ccc(OCCO)cc2)[C@@]12C(=O)Nc1ccc(C#CC3=CCCCC3)cc12")
0.372
>>> numeric_readout("COc1ccc(NN2C(C(O)c3ccc(N(C)C)cc3)C=CC3C(=O)N(C4CCCCC4)C(=O)C32)cc1 (centres undefined)")
-0.28
>>> numeric_readout("COc1ccc([Si](C)(C)[C@@H]2[C@@H](CC(=O)N3Cc4ccccc4C[C@H]3CO)O[C@]3(C(=O)N(Cc4cccc(N5CCC5=O)c4)c4ccccc43)[C@H]2C)cc1")
0.641
>>> numeric_readout("COC(=O)c1c(CC[C@@H](CO)NC(=O)N[C@H](Cc2ccccc2)Cn2cc(-c3ccccn3)nn2)oc(C(C)=O)c1C(=O)OC")
-0.328
>>> numeric_readout("O=C(CS)NCCCCCNC(=O)[C@H]1C[C@H]2C(=O)NCC(=O)N2[C@H]1c1ccc(O)cc1")
-0.887
>>> numeric_readout("CC(C)[Si](C#CCCCC#N)(Oc1ccccc1Br)C(C)C")
-0.108
>>> numeric_readout("Cc1ccc(C2C3C(=O)CC4C(=O)N(c5ccccc5)C(=O)C4C3CN2S(=O)(=O)c2ccc(C)cc2)cc1 (centres undefined)")
0.112
>>> numeric_readout("C[N+](C)(C)CCCC[C@@H]1NC(=O)[C@@H]2C[C@H](C(=O)NCCCCCCNC(=O)CS)[C@H](c3ccc(O)cc3)N2C1=O")
-0.141
>>> numeric_readout("O=C1OCCC=C[C@H]2OC34C=CCN(Cn5nnc6ccccc65)C(=O)[C@H]3N(CCO)C(=O)[C@@H]4C12 (some centres undefined)")
-1.64
>>> numeric_readout("O=C1O[C@H](c2ccccc2)[C@H](c2ccccc2)N2[C@H]1[C@@H](C(=O)NC[C@H](O)c1ccccc1)[C@]1(C(=O)Nc3ccccc31)[C@H]2c1ccc(O)cc1")
0.964
>>> numeric_readout("NCCCCCCNC(=O)[C@H]1C[C@H]2C(=O)N[C@@H](Cc3ccccc3)C(=O)N2[C@H]1c1cccc(OCCO)c1")
-0.0608
>>> numeric_readout("COCCOC(=O)N1C(=O)[C@@]2(c3ccccc31)[C@H](c1ccc(OCCO)cc1)N1[C@H](c3ccccc3)[C@H](c3ccccc3)OC(=O)[C@H]1[C@@H]2C(=O)N1CCc2cc(OC)c(OC)cc2C1")
0.476
>>> numeric_readout("O=C(NCc1ccccc1)[C@@H]1c2ccccc2C(=O)N(C2Cc3ccccc3C2)[C@H]1c1ccc(CO)cc1")
0.0698

These measurements were taken from PubChem BioAssay.
